Reference source: the supplement of paper PMC10307832

Tested on: NCI-H1651
Test Details: relative viability (nuclei count vs DMSO), 5 days (fraction); higher = more cells survive
Stated Conditions: first compound 0.03162 µM
Listed compounds paired with reported relative viability
Note: the reply should be a number with no unit written.

CCN(CC)CCCCNc1ncc2cc(-c3cc(OC)cc(OC)c3)c(NC(=O)NC(C)(C)C)nc2n1 + NC(=O)Nc1cc(-c2cccc(F)c2)sc1C(=O)N[C@H]1CCCNC1 [AZD7762] (partner 0.2 µM) ... 0.508

Now take the following compound into account.
### Prompt Identify measured relative viability associated with O=c1cc(N2CCOCC2)oc2c(-c3cccc4c3sc3ccccc34)cccc12 + CC(=O)Nc1cccc(-n2c(=O)n(C3CC3)c(=O)c3c(Nc4ccc(I)cc4F)n(C)c(=O)c(C)c32)c1 [Trametinib] (partner 0.02 µM)
### Response 0.818
